target-system: T1, CAPRIN-1 protein expressed on the membrane surface of human cancer cells (human, UniProt Q14444 2-709)
T1 sequence (looked up): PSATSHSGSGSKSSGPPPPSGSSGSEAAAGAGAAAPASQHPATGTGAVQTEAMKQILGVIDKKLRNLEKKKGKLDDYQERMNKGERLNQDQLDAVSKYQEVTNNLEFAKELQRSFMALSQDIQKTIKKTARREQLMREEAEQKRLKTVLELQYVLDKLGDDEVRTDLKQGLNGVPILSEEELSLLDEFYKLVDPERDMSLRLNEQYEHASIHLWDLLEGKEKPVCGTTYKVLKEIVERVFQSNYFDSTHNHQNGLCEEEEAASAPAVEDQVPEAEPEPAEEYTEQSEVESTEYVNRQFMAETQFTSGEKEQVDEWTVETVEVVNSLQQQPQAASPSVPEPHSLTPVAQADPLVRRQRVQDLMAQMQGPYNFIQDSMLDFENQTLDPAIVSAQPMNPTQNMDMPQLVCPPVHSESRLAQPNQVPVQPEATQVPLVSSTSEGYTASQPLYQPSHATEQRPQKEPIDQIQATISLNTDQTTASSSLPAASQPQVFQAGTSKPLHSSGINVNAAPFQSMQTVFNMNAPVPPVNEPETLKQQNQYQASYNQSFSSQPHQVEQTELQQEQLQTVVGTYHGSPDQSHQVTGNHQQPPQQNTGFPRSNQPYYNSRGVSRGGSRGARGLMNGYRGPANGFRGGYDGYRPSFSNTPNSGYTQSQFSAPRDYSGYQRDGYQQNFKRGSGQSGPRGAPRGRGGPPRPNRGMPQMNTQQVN
test-method-notes: cell-based or functional assay
readout-label: ADCC cytotoxic activity (51Cr release) on OCI-AML5

- binder: "humanized antibody #8 (antibody, V domains shown) VH: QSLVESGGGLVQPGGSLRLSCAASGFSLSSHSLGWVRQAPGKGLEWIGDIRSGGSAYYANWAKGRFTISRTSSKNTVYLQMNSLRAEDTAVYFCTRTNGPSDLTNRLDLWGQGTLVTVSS VL: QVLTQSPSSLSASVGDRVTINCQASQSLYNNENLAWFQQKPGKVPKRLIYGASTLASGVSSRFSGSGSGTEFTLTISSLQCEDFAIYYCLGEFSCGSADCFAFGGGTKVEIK"
  meas-value: "≥ 15%"
- binder: "humanized antibody #4 (antibody, V domains shown) VH: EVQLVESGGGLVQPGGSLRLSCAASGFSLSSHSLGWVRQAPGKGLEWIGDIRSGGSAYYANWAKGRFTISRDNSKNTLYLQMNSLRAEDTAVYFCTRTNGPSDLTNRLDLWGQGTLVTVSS VL: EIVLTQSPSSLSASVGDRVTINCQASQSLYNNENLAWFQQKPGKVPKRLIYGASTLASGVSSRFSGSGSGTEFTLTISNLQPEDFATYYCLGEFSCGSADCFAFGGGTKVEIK"
  meas-value: "≥ 18%"
- binder: "humanized antibody #5 (antibody, V domains shown) VH: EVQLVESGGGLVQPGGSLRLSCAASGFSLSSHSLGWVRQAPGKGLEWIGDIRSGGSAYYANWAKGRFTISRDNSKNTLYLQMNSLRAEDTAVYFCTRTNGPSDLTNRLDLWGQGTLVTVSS VL: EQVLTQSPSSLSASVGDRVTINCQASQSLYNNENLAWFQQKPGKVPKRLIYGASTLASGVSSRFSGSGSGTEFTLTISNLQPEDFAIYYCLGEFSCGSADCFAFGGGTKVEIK"
  meas-value: "≥ 18%"
- binder: "humanized antibody #2 (antibody, V domains shown) VH: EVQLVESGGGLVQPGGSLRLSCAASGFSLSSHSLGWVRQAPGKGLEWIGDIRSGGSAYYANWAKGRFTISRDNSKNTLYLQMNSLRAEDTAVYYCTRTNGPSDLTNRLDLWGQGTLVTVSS VL: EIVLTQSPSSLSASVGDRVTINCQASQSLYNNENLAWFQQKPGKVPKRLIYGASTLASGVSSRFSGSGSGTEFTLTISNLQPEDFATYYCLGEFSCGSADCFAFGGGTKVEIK"
  meas-value: "≥ 18%"
- binder: "humanized antibody #7 (antibody, V domains shown) VH: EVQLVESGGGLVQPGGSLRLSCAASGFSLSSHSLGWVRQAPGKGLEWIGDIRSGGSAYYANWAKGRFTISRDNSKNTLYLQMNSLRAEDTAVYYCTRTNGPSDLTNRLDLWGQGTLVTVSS VL: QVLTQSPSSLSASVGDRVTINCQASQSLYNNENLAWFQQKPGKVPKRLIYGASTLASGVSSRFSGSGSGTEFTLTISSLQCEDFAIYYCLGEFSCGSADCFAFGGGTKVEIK"
  meas-value: "≥ 20%"
- binder: "humanized antibody #10 (antibody, V domains shown) VH: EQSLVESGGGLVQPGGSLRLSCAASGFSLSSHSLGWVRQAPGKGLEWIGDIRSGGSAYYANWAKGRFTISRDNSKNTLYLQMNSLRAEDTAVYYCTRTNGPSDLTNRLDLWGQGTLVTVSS VL: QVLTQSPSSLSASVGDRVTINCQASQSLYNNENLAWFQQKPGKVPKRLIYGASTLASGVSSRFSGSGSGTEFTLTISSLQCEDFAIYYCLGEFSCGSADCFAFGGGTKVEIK"
  meas-value: "≥ 20%"
- binder: "humanized antibody #1 (antibody, V domains shown) VH: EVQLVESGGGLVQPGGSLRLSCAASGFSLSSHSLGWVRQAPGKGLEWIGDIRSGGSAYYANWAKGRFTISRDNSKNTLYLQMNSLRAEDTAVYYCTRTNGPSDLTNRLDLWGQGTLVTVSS VL: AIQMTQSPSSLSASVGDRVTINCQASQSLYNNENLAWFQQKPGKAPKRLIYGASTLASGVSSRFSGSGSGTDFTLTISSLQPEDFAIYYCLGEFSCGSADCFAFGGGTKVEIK"
  meas-value: "≥ 15%"
- binder: "human-rabbit chimeric anti-CAPRIN-1 antibody (antibody, V domains shown) VH: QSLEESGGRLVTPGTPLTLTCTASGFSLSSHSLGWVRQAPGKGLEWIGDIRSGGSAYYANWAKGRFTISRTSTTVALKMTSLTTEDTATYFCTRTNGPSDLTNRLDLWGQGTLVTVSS VL: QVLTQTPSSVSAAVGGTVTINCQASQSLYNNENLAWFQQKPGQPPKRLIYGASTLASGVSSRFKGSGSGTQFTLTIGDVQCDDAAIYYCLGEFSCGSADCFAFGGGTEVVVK"
  meas-value: "≥ 15%"
- binder: "humanized antibody #9 (antibody, V domains shown) VH: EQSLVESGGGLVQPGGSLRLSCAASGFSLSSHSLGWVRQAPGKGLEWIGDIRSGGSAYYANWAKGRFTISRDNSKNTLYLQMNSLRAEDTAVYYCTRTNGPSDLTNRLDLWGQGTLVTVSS VL: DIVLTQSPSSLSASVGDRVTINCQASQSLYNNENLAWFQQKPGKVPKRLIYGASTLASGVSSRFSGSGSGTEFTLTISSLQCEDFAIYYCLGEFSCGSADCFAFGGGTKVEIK"
  meas-value: "≥ 15%"
